B1: EEHEE_rd4_0003 (parent)
chain: KKVTINGVEIKFNNPEEAVKFALELAKRLNLRIEFHGDQIKIE

Variants of: B1
Assay: folding stability dG (cDNA display proteolysis); higher = more stable
Conditions: PBS, room temperature
Mark Met for reported folding stability dG of 3 kcal/mol or greater; mark Not met for anything smaller.

- item_sequence: "KKVTINGVWIKFNNPEEAVKFALELAKRLNLRIEFHGDQIKIE [E9W]"
  class_label: "Not met"

## Task Has KKVTINGVEIKFNNPEEAVQFALELAKRLNLRIEFHGDQIKIE [K20Q] a recorded folding stability dG greater than or equal to 3 kcal/mol?
## Result Not met

## Task Has KKVTINGVEIKFNNPEEAVKFALELAKRLNLRIEFHGDQKKIE [I40K] a recorded folding stability dG greater than or equal to 3 kcal/mol?
## Result Not met

## Task Has KKVTINGVEIKFPNPEEAVKFALELAKRLNLRIEFHGDQIKIE [N13P] a recorded folding stability dG greater than or equal to 3 kcal/mol?
## Result Not met

## Task Has KKVTINGVEIYFNNPEEAVKFALELAKRLNLRIEFHGDQIKIE [K11Y] a recorded folding stability dG greater than or equal to 3 kcal/mol?
## Result Met

## Task Has KKVTINGVAIKFNNPEEAVKFALELAKRLNLRIEFHGDQIKIE [E9A] a recorded folding stability dG greater than or equal to 3 kcal/mol?
## Result Not met
